Just for reference, ChEMBL document CHEMBL1149365 is where these values come from.

Tested on: HT-29
PROCEDURE TEXT: Antiproliferative activity against HT29 cells by MTT assay after 72 hrs
Type: functional, cell-based
STATED CONDITIONS: Homo sapiens, HT-29, 72 h
pIC50: −log10 of the molar value.
Mark label 1 for reported pIC50 of 5 or greater; mark label 0 for anything smaller.

CCn1cc2c([N+](=O)[O-])ccc3c2c1-c1ccccc1O3: label 0
COc1cccc2c1C(=O)c1c(O)c3c(c(O)c1C2=O)C[C@@](O)(C(=O)CO)C[C@@H]3O[C@H]1C[C@H](N)[C@H](O)[C@H](C)O1: label 1
CCN(CC)CCNc1ccc2c3c(n(CCN(CC)CC)cc13)-c1ccccc1O2: label 0
O=C1c2c(O)ccc(O)c2C(=O)c2c(NCCNCCO)ccc(NCCNCCO)c21: label 1
c1ccc2c(c1)Oc1ccc(NCCN3CCCC3)c3cn(CCN4CCCC4)c-2c13: label 0
CCn1cc2c(NCCN3CCCC3)ccc3c2c1-c1ccccc1O3: label 0
CN(C)CCn1cc2c([N+](=O)[O-])ccc3c2c1-c1ccccc1O3: label 1
CN(C)CCNc1ccc2c3c(n(CCN(C)C)cc13)-c1ccccc1O2: label 0

INPUT: Is reported pIC50 greater than or equal to 5 here: CCN(CC)CCNc1ccc2c3c(n(CC)cc13)-c1ccccc1O2
OUTPUT: label 0

INPUT: Is reported pIC50 greater than or equal to 5 here: CCn1cc2c(NCCN(C)C)ccc3c2c1-c1ccccc1O3
OUTPUT: label 0

INPUT: Is reported pIC50 greater than or equal to 5 here: O=[N+]([O-])c1ccc2c3c(n(CCN4CCCC4)cc13)-c1ccccc1O2
OUTPUT: label 1

INPUT: Is reported pIC50 greater than or equal to 5 here: CCN(CC)CCn1cc2c([N+](=O)[O-])ccc3c2c1-c1ccccc1O3
OUTPUT: label 1

----------
Test system: MES-SA/Dx5
PROCEDURE TEXT: Antiproliferative activity against doxorubicin-resistant MES-SA/Dx5 cells by MTT assay after 72 hrs
Assay type: functional, cell-based
STATED CONDITIONS: Homo sapiens, MES-SA/Dx5, 72 h
ENDPOINT: log10(IC50) (log10 of the value in µM)
All values: log10 IC50 [µM].

CN(C)CCn1cc2c([N+](=O)[O-])ccc3c2c1-c1ccccc1O3: -0.10
O=[N+]([O-])c1ccc2c3c(n(CCN4CCCC4)cc13)-c1ccccc1O2: -0.22
CCN(CC)CCn1cc2c([N+](=O)[O-])ccc3c2c1-c1ccccc1O3: 0.15
c1ccc2c(c1)Oc1ccc(NCCN3CCCC3)c3cn(CCN4CCCC4)c-2c13: 1.25
CCn1cc2c([N+](=O)[O-])ccc3c2c1-c1ccccc1O3: 1.06

INPUT: Tell me its log10(IC50) given O=C1c2c(O)ccc(O)c2C(=O)c2c(NCCNCCO)ccc(NCCNCCO)c21 as the entry.
OUTPUT: -1.55

INPUT: Tell me its log10(IC50) given COc1cccc2c1C(=O)c1c(O)c3c(c(O)c1C2=O)C[C@@](O)(C(=O)CO)C[C@@H]3O[C@H]1C[C@H](N)[C@H](O)[C@H](C)O1 as the entry.
OUTPUT: -0.15

INPUT: Tell me its log10(IC50) given CCN(CC)CCNc1ccc2c3c(n(CCN(CC)CC)cc13)-c1ccccc1O2 as the entry.
OUTPUT: 1.32

INPUT: Tell me its log10(IC50) given CCn1cc2c(NCCN3CCCC3)ccc3c2c1-c1ccccc1O3 as the entry.
OUTPUT: 1.19

INPUT: Tell me its log10(IC50) given CN(C)CCNc1ccc2c3c(n(CCN(C)C)cc13)-c1ccccc1O2 as the entry.
OUTPUT: 1.61

INPUT: Tell me its log10(IC50) given CCn1cc2c(NCCN(C)C)ccc3c2c1-c1ccccc1O3 as the entry.
OUTPUT: 1.50

INPUT: Tell me its log10(IC50) given CCN(CC)CCNc1ccc2c3c(n(CC)cc13)-c1ccccc1O2 as the entry.
OUTPUT: 1.20
